# assay-details: water solubility of the sodium salt
# Assay type: physicochemical
# condition-description: read-out: water solubility of the sodium salt
Recorded solubility for the following compounds

-- ask Recall and state the measured solubility for `Nc1c(I)c(C(=O)O)c(I)c(C(=O)NC(CO)(CO)CO)c1I` .
-- reply ~800 mg/mL

-- ask Recall and state the measured solubility for `CC(CO)(CO)NC(=O)c1c(I)c(N)c(I)c(C(=O)O)c1I` .
-- reply ~830 mg/mL

-- ask Recall and state the measured solubility for `CC(=O)Nc1c(I)c(C(=O)O)c(I)c(C2=NC(CO)(CO)CO2)c1I` .
-- reply 958 mg/mL
